- TEST TARGET: α4β2 nACh receptors (Homo sapiens, UniProt P17787+P43681)
- Sequence (P43681 27-627): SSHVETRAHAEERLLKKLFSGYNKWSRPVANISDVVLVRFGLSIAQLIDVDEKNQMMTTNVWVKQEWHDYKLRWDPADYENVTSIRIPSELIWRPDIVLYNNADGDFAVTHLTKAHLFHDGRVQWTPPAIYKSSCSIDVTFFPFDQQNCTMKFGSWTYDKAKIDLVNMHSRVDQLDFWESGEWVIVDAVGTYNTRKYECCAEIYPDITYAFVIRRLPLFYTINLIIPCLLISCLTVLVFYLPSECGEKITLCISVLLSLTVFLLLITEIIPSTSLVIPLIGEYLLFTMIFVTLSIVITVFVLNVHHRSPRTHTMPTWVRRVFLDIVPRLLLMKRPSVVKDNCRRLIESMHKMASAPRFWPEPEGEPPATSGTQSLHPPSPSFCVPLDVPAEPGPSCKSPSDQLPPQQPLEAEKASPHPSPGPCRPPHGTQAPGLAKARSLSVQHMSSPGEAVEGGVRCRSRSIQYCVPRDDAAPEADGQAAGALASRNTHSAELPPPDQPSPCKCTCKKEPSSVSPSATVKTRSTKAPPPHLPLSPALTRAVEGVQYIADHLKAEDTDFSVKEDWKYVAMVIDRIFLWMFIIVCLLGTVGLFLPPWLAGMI
- Sequence (P17787 26-502): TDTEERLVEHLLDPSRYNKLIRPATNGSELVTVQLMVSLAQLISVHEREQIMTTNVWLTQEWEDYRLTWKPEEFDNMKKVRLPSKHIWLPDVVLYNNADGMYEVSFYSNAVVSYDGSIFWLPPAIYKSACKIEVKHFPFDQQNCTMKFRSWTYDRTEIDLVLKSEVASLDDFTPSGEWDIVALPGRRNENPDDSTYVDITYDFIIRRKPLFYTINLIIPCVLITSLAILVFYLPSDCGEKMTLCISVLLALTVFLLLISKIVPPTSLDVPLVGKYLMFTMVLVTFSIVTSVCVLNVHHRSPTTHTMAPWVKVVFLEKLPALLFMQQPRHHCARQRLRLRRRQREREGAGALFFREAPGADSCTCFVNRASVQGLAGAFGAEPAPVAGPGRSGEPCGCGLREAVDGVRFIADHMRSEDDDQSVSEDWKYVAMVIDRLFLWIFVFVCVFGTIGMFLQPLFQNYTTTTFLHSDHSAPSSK
- Type: cell-based
- STUDY CONDITIONS: highest concentrations evaluated
Structures can show the parent of a compound that is named as a salt.
MEASUREMENT KIND: positive allosteric modulation (potentiation of ACh), in words

                                   compound                               test_target    result
0               CNCCc1c(C(C)C)[nH]c2ccccc12  α4β2 nACh receptors (Homo sapiens, UniProt P17787+P43681)  inactive
1  CCC(C)c1[nH]c2ccccc2c1CCNC (stereo not drawn) [Compound 9, N-Methyl-2-sec-butyltryptamine Oxalate]  α4β2 nACh receptors (Homo sapiens, UniProt P17787+P43681)  inactive

Source of measurements: paper PMC3200116
